test-name: oxidation potential E1 by cyclic voltammetry
Format: physicochemical
condition-info: Table H; model compound, A and L replaced by alkyl
Counter-ions that a name gives are not always drawn.
E1 (V) for XY moiety less than 0.5 V is condition met; E1 (V) for XY moiety greater than or equal to 0.5 V is condition not met.

{"compound": "CCSCCN(c1ccc(C)cc1)[C@@H](C)C(=O)[O-].[Na+] [Compound S-3]", "assigned-class": "condition met"}
{"compound": "Cc1ccc(N(CCC(=O)Nc2cccc(-n3nnnc3S)c2)C(C)C(=O)O)cc1 (stereo not drawn) [PMT-1]", "assigned-class": "condition met"}
{"compound": "CCSCCNC(=O)CCN(CC)c1ccc(CC(=O)O)cc1 [Compound S-18]", "assigned-class": "condition not met"}
{"compound": "CCSCCN(c1ccccc1)C(CC(=O)O)C(=O)O (stereo not drawn) [Compound S-14]", "assigned-class": "condition met"}
{"compound": "CCSCCN(c1ccc(Cl)cc1)C(C)C(=O)O (stereo not drawn) [Compound S-12, sodium salt]", "assigned-class": "condition met"}
{"compound": "CCSCCN(c1cccc(C(N)=O)c1)C(C)C(=O)O (stereo not drawn) [Compound S-13]", "assigned-class": "condition not met"}
{"compound": "CCSCCN(c1ccccc1)C(C)C(=O)O (stereo not drawn) [Compound S-9, sodium salt]", "assigned-class": "condition met"}
{"compound": "CC(C(=O)O)N(CCC(=O)Nc1cccc(-n2nnnc2S)c1)c1ccccc1 (stereo not drawn) [PMT-2]", "assigned-class": "condition met"}
{"compound": "CCSCCN(c1ccc(C(=O)O)cc1)C(C)C(=O)O (stereo not drawn) [Compound S-11]", "assigned-class": "condition not met"}
